target: ABL (Homo sapiens); construct: purchased Promega; test: Tyrosine kinase assay (Kinase Selectivity System TK-2, ADP-Glo); type: biochemical; settings: 1 h incubation, mean ± SD of four experiments
Sequence (P00519 whole entry): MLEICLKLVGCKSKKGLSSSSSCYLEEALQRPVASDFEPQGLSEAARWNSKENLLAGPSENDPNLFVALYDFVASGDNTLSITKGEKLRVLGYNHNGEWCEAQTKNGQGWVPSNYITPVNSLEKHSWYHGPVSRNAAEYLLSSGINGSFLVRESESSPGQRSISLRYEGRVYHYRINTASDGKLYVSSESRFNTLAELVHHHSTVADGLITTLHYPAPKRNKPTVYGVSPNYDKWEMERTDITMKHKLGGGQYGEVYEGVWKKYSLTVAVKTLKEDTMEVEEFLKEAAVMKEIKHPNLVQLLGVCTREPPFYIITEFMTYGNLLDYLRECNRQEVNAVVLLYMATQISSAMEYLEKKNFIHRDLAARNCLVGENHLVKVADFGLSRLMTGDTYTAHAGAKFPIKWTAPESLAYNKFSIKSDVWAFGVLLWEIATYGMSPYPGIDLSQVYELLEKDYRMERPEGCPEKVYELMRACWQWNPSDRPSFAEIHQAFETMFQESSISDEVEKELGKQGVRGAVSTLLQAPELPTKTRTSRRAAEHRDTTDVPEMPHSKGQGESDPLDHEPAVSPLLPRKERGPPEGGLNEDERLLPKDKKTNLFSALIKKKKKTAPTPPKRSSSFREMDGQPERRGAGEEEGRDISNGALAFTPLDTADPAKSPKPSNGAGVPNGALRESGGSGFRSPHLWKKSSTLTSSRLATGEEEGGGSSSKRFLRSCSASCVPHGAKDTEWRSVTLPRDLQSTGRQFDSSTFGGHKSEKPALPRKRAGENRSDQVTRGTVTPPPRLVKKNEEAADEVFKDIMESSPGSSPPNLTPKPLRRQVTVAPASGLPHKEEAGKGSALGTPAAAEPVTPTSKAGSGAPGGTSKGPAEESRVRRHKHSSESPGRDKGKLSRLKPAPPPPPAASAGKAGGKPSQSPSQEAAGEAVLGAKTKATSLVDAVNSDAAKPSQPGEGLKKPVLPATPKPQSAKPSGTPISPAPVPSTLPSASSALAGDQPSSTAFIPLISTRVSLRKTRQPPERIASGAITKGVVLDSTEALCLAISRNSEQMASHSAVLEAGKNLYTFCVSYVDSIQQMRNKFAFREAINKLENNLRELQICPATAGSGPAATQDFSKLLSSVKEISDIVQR
Would you mind sorting the entries by inhibition at 0.5 µM according to these classes? low: < 10%; intermediate: ≥ 10% and < 50%; high: ≥ 50%

Query: Band of COc1cccc(Sc2nc(/C=C/c3ccccc3OC)nc3ccccc23)c1 [IS7] ?
Reply: intermediate

###

target: ABL (Homo sapiens); construct: purchased Promega; assay: Tyrosine kinase assay (Kinase Selectivity System TK-2, ADP-Glo); assay type: biochemical; conditions: 1 h incubation, mean ± SD of four experiments
# binarize inhibition at 0.5 µM: threshold 10% inclusive, high side Criterion met, low side Criterion not met

Smiles structure: COc1ccccc1/C=C/c1nc(Sc2ccccc2F)c2ccccc2n1
Cat: Criterion met
--
Smiles structure: COc1ccc(/C=C/c2nc(Sc3ccccc3Cl)c3ccccc3n2)cc1
Cat: Criterion met
--
Smiles structure: COc1ccccc1/C=C/c1nc(Sc2ccccn2)c2ccc(Cl)cc2n1
Cat: Criterion not met
--
Smiles structure: COc1ccccc1/C=C/c1nc(Sc2cccc(Cl)c2)c2ccccc2n1
Cat: Criterion met
--
Smiles structure: COc1ccc(/C=C/c2nc(Sc3cc4c(cc3Br)OCO4)c3ccccc3n2)c(OC)c1
Cat: Criterion met

Query: I'd appreciate it if you could say whether COc1ccccc1/C=C/c1nc(Sc2ccccc2C(F)(F)F)c2ccccc2n1 has inhibition at 0.5 µM at least equal to 10%.
Reply: Criterion not met

Query: I'd appreciate it if you could say whether COc1ccc(/C=C/c2nc(Sc3ccccc3Cl)c3ccccc3n2)c(OC)c1 has inhibition at 0.5 µM at least equal to 10%.
Reply: Criterion met

Query: I'd appreciate it if you could say whether COc1cccc(Sc2nc(/C=C/c3ccccc3OC)nc3cc(Cl)ccc23)c1 has inhibition at 0.5 µM at least equal to 10%.
Reply: Criterion not met

Query: I'd appreciate it if you could say whether COc1ccccc1/C=C/c1nc(Sc2cc3c(cc2Br)OCO3)c2ccc(Cl)cc2n1 has inhibition at 0.5 µM at least equal to 10%.
Reply: Criterion met

###

system: U-251; assay: Cytotoxicity studies (MTS), antiproliferative activity; type: cell-based, human; details: versus NHDF
Assay metric: Selectivity index U-251
Form field (numeric): enter value without unit.

Before answering, review these 4 worked examples.
Molecule: NC(=O)c1cccc(-c2cc(Nc3ccc(OC(F)(F)F)cc3)ncn2)c1 [GNF-2, reference compound]
Target desc: U-251
Selectivity index U-251: 1.00

Molecule: COc1ccc(/C=C/c2nc(Sc3ccccc3Cl)c3ccccc3n2)c(OC)c1
Target desc: U-251
Selectivity index U-251: 1.20

Molecule: COc1ccccc1/C=C/c1nc(Sc2cccc(O)c2)c2ccccc2n1
Target desc: U-251
Selectivity index U-251: 1.00

Molecule: COc1ccccc1/C=C/c1nc(Sc2ccccc2Cl)c2ccccc2n1
Target desc: U-251
Selectivity index U-251: 1.00

Query: Give the measured Selectivity index U-251 of COc1ccccc1/C=C/c1nc(Sc2ccc3c(c2)OCO3)c2ccccc2n1 .
Reply: 1.00

###

tested on: HCT 116 p53+/+; experiment: Cytotoxicity studies (MTS), antiproliferative activity; format: cell-based, human; details: Homo sapiens, HCT-116; 72 h, MTS
Assay metric: IC50

Compound: COc1ccccc1/C=C/c1nc(Sc2ccccc2Cl)c2ccc(Cl)cc2n1
Observed result: > 25 µM
//
Compound: COc1ccc(/C=C/c2nc(Sc3ccccc3Cl)c3ccccc3n2)c(OC)c1
Observed result: > 15 µM
//
Compound: COc1ccccc1/C=C/c1nc(Sc2cc3c(cc2Br)OCO3)c2ccc(Cl)cc2n1
Observed result: > 25 µM
//
Compound: COc1ccc(/C=C/c2nc(Sc3cc4c(cc3Br)OCO4)c3ccccc3n2)c(OC)c1
Observed result: > 15 µM
//
Compound: COc1ccccc1/C=C/c1nc(Sc2cc3c(cc2Br)OCO3)c2ccccc2n1
Observed result: > 15 µM
//
Compound: COc1ccc(/C=C/c2nc(Sc3ccccc3Cl)c3ccccc3n2)cc1
Observed result: 11.1 µM
//
Compound: COc1ccc(/C=C/c2nc(NCCCN(C)C)c3ccccc3n2)cc1 [CP-31398, reference compound]
Observed result: 18.6 µM
//
Compound: COc1ccccc1/C=C/c1nc(Sc2ccccc2C(F)(F)F)c2ccccc2n1
Observed result: > 25 µM

Query: Give the measured IC50 of COc1ccccc1/C=C/c1nc(Sc2ccc3c(c2)OCO3)c2ccccc2n1 .
Reply: 10.7 µM
